Parameter inhibition: see the listing below.
molecular target: Casein kinase I isoform gamma-3 (Homo sapiens); conditions: at 0.1 µM;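 further: reported value is the mean percent inhibition of the kinase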
A number alone suffices; assume %.

>>> observed_value("FC(F)(F)c1cccc(-c2nn3ncccc3c2-c2ccnc(Nc3ccc4c(c3)OCCO4)n2)c1")
1.54

With those in mind, consider the next molecule.
Q: For Casein kinase I isoform gamma-3 (Homo sapiens), provide inhibition of COc1cc2ncn(-c3cc(OCc4ccccc4C(F)(F)F)c(C(=O)N(C)C)s3)c2cc1OC please.
Ans: -1.27

---

As shown below, each of these compounds has a reported inhibition value.
target: Serine/threonine-protein kinase pim-2 (Homo sapiens) (UniProt Q9P1W9); details: at 0.1 µM;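 further: reported value is the mean percent inhibition of PIM2, measured in the GSK PKIS kinase inhibitor set screen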
Sequence (Q9P1W9 whole entry, looked up): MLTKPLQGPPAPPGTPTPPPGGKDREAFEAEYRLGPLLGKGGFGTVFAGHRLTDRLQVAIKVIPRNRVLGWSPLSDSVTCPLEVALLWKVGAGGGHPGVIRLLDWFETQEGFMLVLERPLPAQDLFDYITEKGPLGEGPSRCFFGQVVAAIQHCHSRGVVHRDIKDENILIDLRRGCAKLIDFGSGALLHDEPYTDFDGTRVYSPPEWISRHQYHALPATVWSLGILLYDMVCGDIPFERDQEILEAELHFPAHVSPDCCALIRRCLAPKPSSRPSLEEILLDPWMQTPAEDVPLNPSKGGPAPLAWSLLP
Report as: number unit

Before answering, review these 5 worked examples.
>>> observed_value("CNC(=O)c1cc(-c2ccc(F)cc2)cc(-c2ccc(S(=O)(=O)N3CCCC3)cc2)c1N")
"-0.39%"
>>> observed_value("CC(C)COC(=O)c1ccc2c(c1)/C(=C/Nc1ccc(S(N)(=O)=O)cc1)C(=O)N2")
"0.83%"
>>> observed_value("CCn1c(-c2nonc2N)nc2c(C#CC(C)(C)O)ncc(OC3CCNCC3)c21")
"1.16%"
>>> observed_value("COc1cc(N2CCN(C(C)C)CC2)ccc1Nc1nc(Nc2ccc(F)cc2C(N)=O)c2cc[nH]c2n1")
"-0.44%"
>>> observed_value("N#Cc1c(NC(=O)CN2CCOCC2)sc2c1CCCC2")
"0.29%"

Kindly consider the entry below.
Q: Form field: reported inhibition of COC(=O)Nc1nc2ccc(Oc3ccc(NC(=O)Nc4cccc(Cl)c4)cc3)cc2[nH]1
Ans: -0.32%

---

biological target: Proto-oncogene tyrosine-protein kinase Src (Homo sapiens); conditions: at 1 µM;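 further: each value is an averaged percent inhibition of SRC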
Each entry gets class 0 if its inhibition stays under 30%, and class 1 if its inhibition is 30% or above.

Answered cases to consult:
>>> discrete_label("FC(F)(F)c1cccc(-c2nn3ncccc3c2-c2ccnc(Nc3ccc4c(c3)OCCO4)n2)c1")
"class 1"
>>> discrete_label("CCn1c(-c2nonc2N)nc2cnc(Oc3cccc(NC(=O)c4ccc(N(C)C)cc4)c3)cc21")
"class 0"
>>> discrete_label("N#Cc1c(NC(=O)CN2CCOCC2)sc2c1CCCC2")
"class 0"
>>> discrete_label("Cc1ccc2c(-c3ccnc(Nc4ccccc4)n3)c(-c3ccc(F)cc3)nn2n1")
"class 1"

Q: Identify whether the reported inhibition of the following compound is 30% or greater: Cc1ccc(O)cc1Nc1ccnc2cc(-c3ccccn3)ccc12
Ans: class 1

---

Target: Testis-specific serine/threonine-protein kinase 2 (Homo sapiens);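 further: each value is the mean percent inhibition of TSSK2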
Sequence (whole entry): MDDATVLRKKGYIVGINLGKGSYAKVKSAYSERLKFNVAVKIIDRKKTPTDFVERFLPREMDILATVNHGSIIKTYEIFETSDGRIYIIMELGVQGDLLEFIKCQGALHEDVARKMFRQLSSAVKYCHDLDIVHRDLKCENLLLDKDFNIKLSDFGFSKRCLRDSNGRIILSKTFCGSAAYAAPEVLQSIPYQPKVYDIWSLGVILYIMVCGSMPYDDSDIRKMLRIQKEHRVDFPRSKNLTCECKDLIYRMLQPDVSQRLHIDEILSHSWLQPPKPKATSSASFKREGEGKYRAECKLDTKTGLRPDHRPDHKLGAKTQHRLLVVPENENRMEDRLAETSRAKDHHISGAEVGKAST
Settings: at 1 µM
measured-metric: inhibition (%)
// note: answer is a bare numeric in %

Q: Report inhibition for CN(C)CCOc1ccc(-c2nc(-c3ccncc3)c(-c3ccc4c(c3)CC/C4=N\O)[nH]2)cc1 please.
Ans: 2.43

---

target: Discoidin domain-containing receptor 2 (Homo sapiens); conditions: at 0.1 µM;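 further: reported values are mean percent inhibition of DDR2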
measured-metric: inhibition (%)
Please reply with the bare figure in % and do not write the unit itself.

>>> observed_value("CCn1c(-c2nonc2N)nc2c(C#CC(C)(C)O)ncc(OC3CCNCC3)c21")
0.94

Q: Reported inhibition for COc1ccc(-c2oc3ncnc(N)c3c2-c2ccc(NC(=O)Nc3cc(C(F)(F)F)ccc3F)cc2)cc1 : what is it?
Ans: 56.3

Q: What measured inhibition goes with COC(=O)Nc1nc2ccc(S(=O)(=O)c3ccc(NC(=O)Nc4cc(C(F)(F)F)ccc4F)cc3)cc2[nH]1 ?
Ans: 10.3

Q: Which inhibition value is on record for CCn1c(-c2nonc2N)nc2c(C#CC(C)(C)O)nc(OC[C@H](N)c3ccccc3)cc21 ?
Ans: 1.12

Q: Record request: inhibition value, item CS(=O)(=O)CCNCc1coc(-c2ccc3ncnc(Nc4ccc(OCc5ccccc5)cc4)c3c2)c1
Ans: 1.75

Q: Data request, read-out inhibition, for COc1ccc2[nH]c3c4[nH]c5ccc(OC)cc5c4c4c(c3c2c1)C(=O)NC4=O
Ans: 2.8

---

tested on: Epidermal growth factor receptor (Homo sapiens), P00533 [L858R]; conditions: at 1 µM
Sequence (P00533 whole entry L858R): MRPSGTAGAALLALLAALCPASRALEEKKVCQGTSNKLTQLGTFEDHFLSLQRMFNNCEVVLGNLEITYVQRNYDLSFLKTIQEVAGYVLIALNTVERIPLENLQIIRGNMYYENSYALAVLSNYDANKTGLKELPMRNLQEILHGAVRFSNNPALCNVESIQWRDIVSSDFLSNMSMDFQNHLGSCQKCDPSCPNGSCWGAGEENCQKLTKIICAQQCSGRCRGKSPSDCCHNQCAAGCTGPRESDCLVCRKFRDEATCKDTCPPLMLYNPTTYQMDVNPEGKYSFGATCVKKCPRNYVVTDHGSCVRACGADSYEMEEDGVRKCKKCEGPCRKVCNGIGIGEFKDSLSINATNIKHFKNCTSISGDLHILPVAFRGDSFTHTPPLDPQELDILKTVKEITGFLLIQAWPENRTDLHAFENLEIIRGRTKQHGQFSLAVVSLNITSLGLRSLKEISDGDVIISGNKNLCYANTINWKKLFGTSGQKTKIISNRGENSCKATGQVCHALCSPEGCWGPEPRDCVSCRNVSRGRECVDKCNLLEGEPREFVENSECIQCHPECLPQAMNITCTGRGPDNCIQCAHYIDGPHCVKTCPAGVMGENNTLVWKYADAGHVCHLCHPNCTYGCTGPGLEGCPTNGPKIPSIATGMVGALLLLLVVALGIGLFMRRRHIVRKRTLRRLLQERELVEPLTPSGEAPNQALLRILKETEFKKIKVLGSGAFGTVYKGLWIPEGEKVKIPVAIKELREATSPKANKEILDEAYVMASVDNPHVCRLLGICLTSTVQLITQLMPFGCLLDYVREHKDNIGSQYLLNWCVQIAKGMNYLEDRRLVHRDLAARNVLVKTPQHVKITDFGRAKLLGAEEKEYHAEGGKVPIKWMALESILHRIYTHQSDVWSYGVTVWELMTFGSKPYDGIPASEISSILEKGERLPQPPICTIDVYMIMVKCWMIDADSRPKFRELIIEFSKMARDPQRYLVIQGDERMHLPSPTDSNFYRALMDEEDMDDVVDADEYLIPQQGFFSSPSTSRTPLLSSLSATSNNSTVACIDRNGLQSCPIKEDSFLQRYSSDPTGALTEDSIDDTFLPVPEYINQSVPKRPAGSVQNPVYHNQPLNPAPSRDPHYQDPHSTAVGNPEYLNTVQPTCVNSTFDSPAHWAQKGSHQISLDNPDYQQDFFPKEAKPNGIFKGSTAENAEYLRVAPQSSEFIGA
Recorded inhibition for the following compounds
Respond with the bare value in %.

Before answering, review these 2 worked examples.
>>> observed_value("O=C(Nc1n[nH]c2cc(-c3ccc(F)cc3)ccc12)C1CC1")
4.19
>>> observed_value("NC(=O)c1sc(-n2cnc3ccc(C(F)(F)F)cc32)cc1OCc1ccccc1Br")
4.51

Now look at this entry.
Q: Data request, read-out inhibition, for COc1cc(/C=N/Nc2ncnc3[nH]ncc23)ccc1O
Ans: 7.89

---

target: Mitogen-activated protein kinase 14 (Homo sapiens); conditions: at 0.1 µM;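 further: values are mean percent inhibition of p38α kinase from the GSK PKIS published kinase inhibitor set screen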
inhibition by entry:
Write down the numeric answer in % and omit the unit.

Examples with answers:
>>> observed_value("COC(=O)Nc1nc2ccc(Oc3ccc(NC(=O)Nc4cccc(Cl)c4)cc3)cc2[nH]1")
7.99
>>> observed_value("c1ccc(-c2nc3n(c2-c2ccc4c(c2)OCO4)CCC3)nc1")
4.21
>>> observed_value("c1cc(-c2cnn3nc(N4CCOCC4)ccc23)nc(NC2CC2)n1")
6.66
>>> observed_value("CNC(=O)c1cncc(/C=C/c2ccccc2Cl)c1")
-6.55
>>> observed_value("COc1cc(/C=N/Nc2ncnc3[nH]ncc23)ccc1O")
7.26
>>> observed_value("Cc1ccc2c(-c3ccnc(Nc4ccccc4)n3)c(-c3ccc(F)cc3)nn2n1")
71
>>> observed_value("CCn1c(-c2nonc2N)nc2cnc(Oc3cccc(NC(=O)c4ccc(N(C)C)cc4)c3)cc21")
-0.32
>>> observed_value("N#Cc1c(NC(=O)CN2CCOCC2)sc2c1CCCC2")
5.67

Q: Value lookup for inhibition; key = Nc1nc(-c2cccc(Cl)c2)c(-c2ccc3ncccc3n2)s1
Ans: 8.73

Q: Recorded inhibition for Nc1ncc(-c2cccc(S(N)(=O)=O)c2)c2scc(-c3ccc(F)c(Cl)c3)c12 , please?
Ans: 13.9

---

molecular target: Tyrosine-protein kinase CSK (Homo sapiens) (UniProt P41240); details: at 0.1 µM;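 further: value given is the averaged percent inhibition of CSK kinase activity, from the GSK PKIS kinase inhibitor set screening panel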
Sequence (P41240 2-450 limits assumed): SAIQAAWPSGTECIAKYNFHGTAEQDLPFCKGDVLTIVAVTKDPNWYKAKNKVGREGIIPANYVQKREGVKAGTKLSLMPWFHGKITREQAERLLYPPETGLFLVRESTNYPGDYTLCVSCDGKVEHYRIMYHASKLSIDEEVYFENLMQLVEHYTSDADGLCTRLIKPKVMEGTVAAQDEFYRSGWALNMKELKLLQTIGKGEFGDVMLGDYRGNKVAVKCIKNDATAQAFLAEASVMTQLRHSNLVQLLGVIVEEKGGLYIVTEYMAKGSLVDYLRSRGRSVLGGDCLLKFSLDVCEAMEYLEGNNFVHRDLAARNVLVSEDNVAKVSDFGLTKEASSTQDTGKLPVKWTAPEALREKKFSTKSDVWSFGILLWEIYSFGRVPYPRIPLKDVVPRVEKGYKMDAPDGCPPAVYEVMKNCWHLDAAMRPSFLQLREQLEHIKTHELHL
Measured inhibition, listed per entry for reference.
# unit: % | format: bare number

Solved entries:
>>> observed_value("CCCN1CCC(c2ccc(Nc3nc(Nc4cc(F)ccc4C(N)=O)c4cc[nH]c4n3)c(OC)c2)CC1")
1.38
>>> observed_value("CC(=O)Nc1cccc(C#Cc2cncnc2Nc2ccc(OCc3cccc(F)c3)c(Cl)c2)c1")
5.08
>>> observed_value("Nc1nc(-c2cccc(Cl)c2)c(-c2ccc3ncccc3n2)s1")
5.57

Q: Given COc1cccc(-c2c[nH]c3c(N/N=C/c4ccncc4)ncnc23)c1 , state its recorded inhibition.
Ans: 4.78

Q: # get_value(readout='inhibition', item= CC(C)COC(=O)c1ccc2c(c1)/C(=C/Nc1ccc(S(N)(=O)=O)cc1)C(=O)N2 )
Ans: -2.24

Q: I have this compound here, Cc1ccc(O)cc1Nc1ccnc2cc(-c3ccccn3)ccc12 , and I need its recorded inhibition.
Ans: 14.5

Q: Quick one: inhibition for CCn1c(-c2nonc2N)nc2ccccc21 ?
Ans: 2.25

Q: Give the measured inhibition of COc1cc(/C=N/Nc2ncnc3[nH]ncc23)ccc1O .
Ans: 7.17

Q: Can you share its inhibition? I mean this compound: COc1ccc2c(-c3ccnc(Nc4cccc(OC(F)(F)F)c4)n3)cnn2n1
Ans: 8.18

---

molecular target: Testis-specific serine/threonine-protein kinase 1 (Homo sapiens) (UniProt Q9BXA7); settings: at 1 µM;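 further: reported value is the mean inhibition, from the GSK PKIS kinase screening panel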
Sequence (Q9BXA7 whole entry): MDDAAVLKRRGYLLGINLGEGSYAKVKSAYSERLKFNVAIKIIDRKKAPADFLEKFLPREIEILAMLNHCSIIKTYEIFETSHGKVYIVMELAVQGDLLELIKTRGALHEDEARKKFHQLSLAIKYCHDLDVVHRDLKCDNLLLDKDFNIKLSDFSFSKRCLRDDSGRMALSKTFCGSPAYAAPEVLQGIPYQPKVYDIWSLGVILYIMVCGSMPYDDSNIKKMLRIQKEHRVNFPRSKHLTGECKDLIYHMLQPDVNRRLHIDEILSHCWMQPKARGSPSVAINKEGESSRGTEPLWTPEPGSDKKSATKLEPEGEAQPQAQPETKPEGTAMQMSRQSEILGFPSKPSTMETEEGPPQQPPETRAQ
inhibition values by entry
Reply with a number, then the unit it belongs to.

In the examples that follow, each entry is paired with its recorded inhibition.
>>> observed_value("Cc1ccc2c(-c3ccnc(Nc4ccccc4)n3)c(-c3ccc(F)cc3)nn2n1")
"0.03%"
>>> observed_value("CN1CCC(n2cnc(-c3ccc(F)cc3)c2-c2ccnc(Nc3ccccc3)n2)CC1")
"3.21%"
>>> observed_value("O=S(=O)(CCNCc1ccc(-c2ccc3ncnc(Nc4ccc(OCc5cccc(F)c5)c(Cl)c4)c3c2)o1)c1ccccc1")
"5.43%"
>>> observed_value("c1ccc(COc2ccc(Nc3ncnc4ccc(-c5ccco5)cc34)cc2)cc1")
"0.68%"
>>> observed_value("CCn1c(-c2nonc2N)nc2c(C#CC(C)(C)O)nc(OC[C@H](N)c3ccccc3)cc21")
"44.1%"

Q: # get_value(readout='inhibition', item= COc1ccc2[nH]c3c4[nH]c5ccc(OC)cc5c4c4c(c3c2c1)C(=O)NC4=O )
Ans: 11.6%

Q: Param item = Cc1cccc(Nc2ncc(-c3ccccc3)o2)c1 ; retrieve measured inhibition.
Ans: 4.49%

Q: Look at this compound and give its reported inhibition. CC(C)COC(=O)c1ccc2c(c1)/C(=C/Nc1ccc(S(N)(=O)=O)cc1)C(=O)N2
Ans: 50.2%
